# assay.context: human gut metagenome, 24 h, 2 µM; also: call rule not given here

>  <molecule>
CN1CCC[C@@H]1CCO[C@](C)(c1ccccc1)c1ccc(Cl)cc1.O=C(O)/C=C/C(=O)O [CLEMASTINE FUMARATE]

>  <Bacterial Biotransformation>
Compound metabolized

$$$$
>  <molecule>
CCCN(CCC)CCc1cccc2c1CC(=O)N2

>  <Bacterial Biotransformation>
Compound metabolized

$$$$
>  <molecule>
Cc1ccccc1C(OCCN(C)C)c1ccccc1.O=C(O)CC(O)(CC(=O)O)C(=O)O (stereo not given) [ORPHENADRINE CITRATE]

>  <Bacterial Biotransformation>
Compound metabolized

$$$$
>  <molecule>
COc1ccc2cc([C@H](C)C(=O)O)ccc2c1

>  <Bacterial Biotransformation>
Compound metabolized

$$$$
>  <molecule>
CCc1cccc2c3c([nH]c12)C(CC)(CC(=O)O)OCC3 (stereo not given)

>  <Bacterial Biotransformation>
Compound metabolized

$$$$
>  <molecule>
CC(=O)CCCCn1c(=O)c2c(ncn2C)n(C)c1=O

>  <Bacterial Biotransformation>
Compound metabolized

$$$$
>  <molecule>
C[N+]12CCC(CC1)C(OC(=O)C(O)(c1ccccc1)c1ccccc1)C2.[Br-] (stereo not given) [CLIDINIUM BROMIDE]

>  <Bacterial Biotransformation>
Compound NOT metabolized

$$$$
>  <molecule>
C#C[C@]1(OC(C)=O)CC[C@H]2[C@@H]3CCC4=CC(=O)CC[C@@H]4[C@H]3CC[C@@]21C [NORETHINDRONE ACETATE]

>  <Bacterial Biotransformation>
Compound metabolized

$$$$
>  <molecule>
CC(C)[C@H]1CC[C@H](C(=O)N[C@H](Cc2ccccc2)C(=O)O)CC1 [NATEGLINIDE]

>  <Bacterial Biotransformation>
Compound metabolized

$$$$
>  <molecule>
CN(C)CCc1c[nH]c2ccc(CS(=O)(=O)N3CCCC3)cc12

>  <Bacterial Biotransformation>
Compound NOT metabolized

$$$$
>  <molecule>
Nc1nnc(-c2cccc(Cl)c2Cl)c(N)n1

>  <Bacterial Biotransformation>
Compound metabolized

$$$$
>  <molecule>
O=C(NC(Cc1cc(=O)[nH]c2ccccc12)C(=O)O)c1ccc(Cl)cc1 (stereo not given) [REBAMIPIDE]

>  <Bacterial Biotransformation>
Compound NOT metabolized

$$$$
>  <molecule>
OC(c1cc(C(F)(F)F)nc2c(C(F)(F)F)cccc12)C1CCCCN1 (stereo not given)

>  <Bacterial Biotransformation>
Compound metabolized

$$$$
>  <molecule>
CCOC(=O)C1=C[C@]2(CC)CCCN3CCc4c(n1c1ccccc41)[C@@H]32

>  <Bacterial Biotransformation>
Compound NOT metabolized

$$$$
>  <molecule>
O=C(O)c1cc(/N=N/c2ccc(S(=O)(=O)Nc3ccccn3)cc2)ccc1O

>  <Bacterial Biotransformation>
Compound metabolized

$$$$
>  <molecule>
CCN(C)C(=O)Oc1cccc([C@H](C)N(C)C)c1.O=C(O)C(O)C(O)C(=O)O [RIVASTIGMINE TARTRATE]

>  <Bacterial Biotransformation>
Compound NOT metabolized

$$$$
>  <molecule>
CSc1ccc2c(c1)C(N1CCN(C)CC1)Cc1ccccc1S2.O=C(O)/C=C\C(=O)O (stereo not given)

>  <Bacterial Biotransformation>
Compound NOT metabolized

$$$$
>  <molecule>
CC#C[C@]1(O)CC[C@H]2[C@@H]3CCC4=CC(=O)CCC4=C3[C@@H](c3ccc(N(C)C)cc3)C[C@@]21C

>  <Bacterial Biotransformation>
Compound metabolized

$$$$
>  <molecule>
Cc1nc(Nc2ncc(C(=O)Nc3c(C)cccc3Cl)s2)cc(N2CCN(CCO)CC2)n1 [DASATINIB ANHYDROUS]

>  <Bacterial Biotransformation>
Compound metabolized

$$$$
>  <molecule>
CCN(CC)CCNC(=O)c1ccc(NC(C)=O)cc1 [ACECAINIDE]

>  <Bacterial Biotransformation>
Compound metabolized

$$$$
>  <molecule>
CCCCCNC(=N)N/N=C/c1c[nH]c2ccc(OC)cc12.O=C(O)/C=C\C(=O)O [TEGASEROD MALEATE]

>  <Bacterial Biotransformation>
Compound NOT metabolized

$$$$
>  <molecule>
CCN(CC)CCOC(=O)C1(C2CCCCC2)CCCCC1

>  <Bacterial Biotransformation>
Compound metabolized

$$$$
>  <molecule>
CCN1CCCC1CNC(=O)c1cc(S(=O)(=O)CC)c(N)cc1OC (stereo not given) [AMISULPRIDE]

>  <Bacterial Biotransformation>
Compound NOT metabolized

$$$$
>  <molecule>
CC(N)C12CC3CC(CC(C3)C1)C2 (stereo not given)

>  <Bacterial Biotransformation>
Compound NOT metabolized

$$$$
>  <molecule>
COc1ccc(Cc2nccc3cc(OC)c(OC)cc23)cc1OC

>  <Bacterial Biotransformation>
Compound metabolized

$$$$
>  <molecule>
CN(C/C=C/C#CC(C)(C)C)Cc1cccc2ccccc12

>  <Bacterial Biotransformation>
Compound metabolized

$$$$
>  <molecule>
COC(=O)C(c1ccccc1)C1CCCCN1 (stereo not given) [METHYLPHENIDATE]

>  <Bacterial Biotransformation>
Compound NOT metabolized

$$$$
>  <molecule>
O=C1C(CC[S+]([O-])c2ccccc2)C(=O)N(c2ccccc2)N1c1ccccc1 (stereo not given)

>  <Bacterial Biotransformation>
Compound metabolized

$$$$
>  <molecule>
CN(C)CCC=C1c2ccccc2COc2ccccc21 [DOXEPIN]

>  <Bacterial Biotransformation>
Compound metabolized

$$$$
>  <molecule>
CC(=O)O[C@]1(C(C)=O)CC[C@H]2[C@@H]3C=C(C)C4=CC(=O)CC[C@]4(C)[C@H]3CC[C@@]21C [MEGESTROL ACETATE]

>  <Bacterial Biotransformation>
Compound metabolized

$$$$
>  <molecule>
CC1Cc2ccccc2N1NC(=O)c1ccc(Cl)c(S(N)(=O)=O)c1 (stereo not given) [INDAPAMIDE]

>  <Bacterial Biotransformation>
Compound NOT metabolized

$$$$
>  <molecule>
CCN(C(C)=O)c1cccc(-c2ccnc3c(C#N)cnn23)c1

>  <Bacterial Biotransformation>
Compound metabolized

$$$$
>  <molecule>
CCCC(C)(COC(N)=O)COC(=O)NC(C)C (stereo not given)

>  <Bacterial Biotransformation>
Compound metabolized

$$$$
>  <molecule>
N=C(N)NC(=O)Cc1c(Cl)cccc1Cl

>  <Bacterial Biotransformation>
Compound NOT metabolized

$$$$
>  <molecule>
CCCCC(=O)O[C@]1(C(=O)CO)[C@@H](C)C[C@H]2[C@@H]3CCC4=CC(=O)C=C[C@]4(C)[C@@]3(F)[C@@H](O)C[C@@]21C [BETAMETHASONE VALERATE]

>  <Bacterial Biotransformation>
Compound metabolized

$$$$
